# Test system: E. coli [BL21(DE3)]
# experiment_description: Minimal Bactericidal Concentration (MBC) measurements, E. coli
# Assay type: cell-based
# experimental_setup: Table 1; lowest IL concentration with no growth on LBKan agar plate, triplicate

compound: C[N+](C)(C)CCO.O=C(O)CC(O)C(=O)[O-] (stereo not shown) [CAMI 1:1, Choline Malate 1:1]
target_desc: E. coli [BL21(DE3)]
result_units: mM
E. coli MBC: 1126.13
--
compound: CCCCCCCCCCC(=O)[O-].C[N+](C)(C)CCO [CAUA 1:1, Choline Undecanoate 1:1]
target_desc: E. coli [BL21(DE3)]
result_units: mM
E. coli MBC: 15.50
--
compound: CCCCCC/C=C/C(=O)O [CA2NE 1:2, Choline 2-Nonenoate 1:2]
target_desc: E. coli [BL21(DE3)]
result_units: mM
E. coli MBC: 1.22
--
compound: C[N+](C)(C)CCO.O=C([O-])CCS [CA3MP 1:1, Choline 3-Mercaptopropionate 1:1]
target_desc: E. coli [BL21(DE3)]
result_units: mM
E. coli MBC: 1378.42
--
compound: CCCCCCCCCC(=O)[O-].C[N+](C)(C)CCO [CADA 1:1, Choline Decanoate 1:1]
target_desc: E. coli [BL21(DE3)]
result_units: mM
E. coli MBC: 3.48
--
compound: CCCC=CC(=O)[O-].C[N+](C)(C)CCO [CA2HE 1:1, Choline 2-Hexenoate 1:1]
target_desc: E. coli [BL21(DE3)]
result_units: mM
E. coli MBC: 507.63
--
compound: C[N+](C)(C)CCO.O=C([O-])C=CC(=O)O [CAME 1:1, Choline Maleate 1:1]
target_desc: E. coli [BL21(DE3)]
result_units: mM
E. coli MBC: 38.37
--
compound: CCCC/C=C/CC(=O)O [CA3OE 1:1, Choline 3-Octenoate 1:1]
target_desc: E. coli [BL21(DE3)]
result_units: mM
E. coli MBC: 92.00
--
compound: CCCCCC/C=C/C(=O)O [CA2NE 1:1, Choline 2-Nonenoate 1:1]
target_desc: E. coli [BL21(DE3)]
result_units: mM
E. coli MBC: 56.40
--
compound: CCCCCC(=O)[O-].C[N+](C)(C)CCO [CAHA 1:1, Choline Hexanoate 1:1]
target_desc: E. coli [BL21(DE3)]
result_units: mM
E. coli MBC: 483.53
--
compound: CCCCCCCCCCCC(=O)[O-].C[N+](C)(C)CCO [CADDA 1:1, Choline Dodecanoate 1:1]
target_desc: E. coli [BL21(DE3)]
result_units: mM
E. coli MBC: 17.10
--
compound: CCCCCCC(=O)[O-].C[N+](C)(C)CCO [CAHPA 1:1, Choline Heptanoate 1:1]
target_desc: E. coli [BL21(DE3)]
result_units: mM
E. coli MBC: 101.80
--
compound: C[N+](C)(C)CCO.O=C([O-])CC(=O)O [CAMA 1:1, Choline Malonate 1:1]
target_desc: E. coli [BL21(DE3)]
result_units: mM
E. coli MBC: 1368.53
--
compound: CCOCC(=O)[O-].C[N+](C)(C)CCO [CAEA 1:1, Choline Ethoxyacetate 1:1]
target_desc: E. coli [BL21(DE3)]
result_units: mM
E. coli MBC: 1746.07
--
compound: CCCCCCC=CCC(=O)[O-].C[N+](C)(C)CCO [CA3DE 1:1, Choline 3-Decenoate 1:1]
target_desc: E. coli [BL21(DE3)]
result_units: mM
E. coli MBC: 3.10
--
compound: CCCC(=O)[O-].C[N+](C)(C)CCO [CABA 1:1, Choline Butanoate 1:1]
target_desc: E. coli [BL21(DE3)]
result_units: mM
E. coli MBC: 1234.35
--
compound: CC/C=C(\C)C(=O)O [CAGAS 1:2, Choline trans-2-Methyl-2-Pentenoate 1:2]
target_desc: E. coli [BL21(DE3)]
result_units: mM
E. coli MBC: 44.60
--
compound: CCCCCCCC(=O)[O-].C[N+](C)(C)CCO [CAOA 1:1, Choline Octanoate 1:1]
target_desc: E. coli [BL21(DE3)]
result_units: mM
E. coli MBC: 76.63
--
compound: CCCCCCCCC(=O)[O-].C[N+](C)(C)CCO [CANA 1:1, Choline Nonanoate 1:1]
target_desc: E. coli [BL21(DE3)]
result_units: mM
E. coli MBC: 13.63
--
compound: CCCCC=CC(=O)[O-].C[N+](C)(C)CCO [CA2HPE 1:1, Choline 2-Heptenoate 1:1]
target_desc: E. coli [BL21(DE3)]
result_units: mM
E. coli MBC: 346.93
--
compound: CC=CC(=O)[O-].C[N+](C)(C)CCO [CA2BE 1:1, Choline 2-Butenoate 1:1]
target_desc: E. coli [BL21(DE3)]
result_units: mM
E. coli MBC: 1330.40
--
compound: CCCCCCCC/C=C/C(=O)O [CA2UE 1:1, Choline 2-Undecenoate 1:1]
target_desc: E. coli [BL21(DE3)]
result_units: mM
E. coli MBC: 15.08
--
compound: CC(=O)OCC(=O)O [CAAA 1:1, Choline Acetoxyacetate 1:1]
target_desc: E. coli [BL21(DE3)]
result_units: mM
E. coli MBC: 73.40
--
compound: CCCCC/C=C/C(=O)O [CA2OE 1:1, Choline 2-Octenoate 1:1]
target_desc: E. coli [BL21(DE3)]
result_units: mM
E. coli MBC: 84.70
--
compound: CC/C=C/CC(=O)O [CA3HE 1:1, Choline 3-Hexenoate 1:1]
target_desc: E. coli [BL21(DE3)]
result_units: mM
E. coli MBC: 511.17
--
compound: CC/C=C(\C)C(=O)O [CAGAS 1:1, Choline trans-2-Methyl-2-Pentenoate 1:1]
target_desc: E. coli [BL21(DE3)]
result_units: mM
E. coli MBC: 530.73
--
compound: CCC=CC(=O)[O-].C[N+](C)(C)CCO [CA2PE 1:1, Choline 2-Pentenoate 1:1]
target_desc: E. coli [BL21(DE3)]
result_units: mM
E. coli MBC: 1151.30
--
compound: CCCCCCCC=CC(=O)[O-].C[N+](C)(C)CCO [CA2DE 1:1, Choline 2-Decenoate 1:1]
target_desc: E. coli [BL21(DE3)]
result_units: mM
E. coli MBC: 3.67
--
compound: CCCCC/C=C/CC(=O)O [CA3NE 1:1, Choline 3-Nonenoate 1:1]
target_desc: E. coli [BL21(DE3)]
result_units: mM
E. coli MBC: 57.50
--
compound: C=CCC(=O)[O-].C[N+](C)(C)CCO [CA3BE 1:1, Choline 3-Butenoate 1:1]
target_desc: E. coli [BL21(DE3)]
result_units: mM
E. coli MBC: 1350.93
--
compound: CCCCC(=O)[O-].C[N+](C)(C)CCO [CAPA 1:1, Choline Pentanoate 1:1]
target_desc: E. coli [BL21(DE3)]
result_units: mM
E. coli MBC: 792.10
--
compound: CCCC=CCC(=O)[O-].C[N+](C)(C)CCO [CA3HPE 1:1, Choline 3-Heptenoate 1:1]
target_desc: E. coli [BL21(DE3)]
result_units: mM
E. coli MBC: 347.63
--
compound: CC=CCC(=O)[O-].C[N+](C)(C)CCO [CA3PE 1:1, Choline 3-Pentenoate 1:1]
target_desc: E. coli [BL21(DE3)]
result_units: mM
E. coli MBC: 1152.23
--
compound: C[N+](C)(C)CCO.O=C([O-])/C=C/C(=O)O [CAFU 1:1, Choline Fumarate 1:1]
target_desc: E. coli [BL21(DE3)]
result_units: mM
E. coli MBC: 27.17
